Assay: Luminescence activity assay of purified Gaussia luciferase mutants on coelenterazine
Assay type: biochemical
Parameters: key: ratio of mutant luminescence intensity to wild-type Gaussia luciferase
Settings: Substrate CTZ (Table 16)
metric name: Activity of mutant relative to wild-type Gaussia luciferase without the signal peptide
// return just the number, without any unit appended

molecule	reading
F26C V29Y S33G A36I T37E L40T: Gaussia luciferase mutant (protein, SIGNAL (1)..(17), Gaussia luciferase mutant) MGVKVLFALICIAVAEAKPTENNEDCNIYAVAGNFIETDTDADRGKLPGKKLPLEVLKEMEANARKAGCTRGCLICLSHIKCTPKMKKFIPGRCHTYEGDKESAQGGIGEAIVDIPEIPGFKDLEPMEQFIAQVDLCVDCTTGCLKGLANVQCSDLLKKWLPQRCATFASKIQGQVDKIKGAGGD	0.016

Task item: Quick one: Activity of mutant relative to wild-type Gaussia luciferase without the signal peptide for Q152H S170D Q175E A182Y: Gaussia luciferase mutant (protein, SIGNAL (1)..(17), Gaussia luciferase mutant) MGVKVLFALICIAVAEAKPTENNEDFNIVAVASNFATTDLDADRGKLPGKKLPLEVLKEMEANARKAGCTRGCLICLSHIKCTPKMKKFIPGRCHTYEGDKESAQGGIGEAIVDIPEIPGFKDLEPMEQFIAQVDLCVDCTTGCLKGLANVHCSDLLKKWLPQRCATFADKIQGEVDKIKGYGGD ?
Reply: 0.615
